Data credit: paper PMC8433052

- test.details: Cytotoxicity against MRC5 cells
- Assay type: cell-based, Human
- experimental.parameters: human, rescreening (Table 3), read-out: CC50
measured.property: CC50 (nM)
Please respond with the number in nM and leave the unit unwritten.

Please list CC50 recorded for the molecule Nc1ncnc2c1c(/C=N\O)cn2[C@@H]1O[C@H](CO)[C@@H](O)[C@H]1O 740

Please list CC50 recorded for the molecule Nc1c2ccn([C@@H]3O[C@H](CO)[C@@H](O)[C@H]3O)c2nc[n+]1[O-] [HUP1077, 3-tubercidin N-oxide] 24000

Please list CC50 recorded for the molecule Nc1ncnc2c1ccn2[C@@H]1O[C@H](CO)[C@@H](O)[C@H]1O 660
